Entry source: patent US5712273A

# tested system: NK1-receptor (substance P-receptor) (Homo sapiens, UniProt P25103)
# Construct: cloned NK1 -receptors on human lymphoblastoma cells (IM-9); endogenous in cells; host or cells: IM-9 human lymphoblastoma cells
# Sequence (P25103 whole entry): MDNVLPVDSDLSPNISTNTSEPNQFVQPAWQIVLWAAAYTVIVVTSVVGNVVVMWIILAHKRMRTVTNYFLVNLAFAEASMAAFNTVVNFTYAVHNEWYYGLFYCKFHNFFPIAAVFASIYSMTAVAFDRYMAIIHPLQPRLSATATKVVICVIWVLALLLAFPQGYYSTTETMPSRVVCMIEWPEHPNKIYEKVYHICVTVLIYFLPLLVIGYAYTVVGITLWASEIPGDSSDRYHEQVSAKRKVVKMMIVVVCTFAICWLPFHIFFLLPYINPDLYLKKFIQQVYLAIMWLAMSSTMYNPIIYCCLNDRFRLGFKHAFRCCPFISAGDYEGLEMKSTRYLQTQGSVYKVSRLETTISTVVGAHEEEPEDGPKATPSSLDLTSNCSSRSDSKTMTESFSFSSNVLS
# assay details: NK1-receptor (substance P-receptor) affinity: displacement of 125I-labelled substance P on IM-9 cells
# Type: binding
measured parameter: IC50 (µM)
Respond with the bare value in µM.

The compound listed as COc1ccccc1N1CCN(C(=O)[C@H](Cc2ccc3ccccc3c2)NC(=O)[C@@H]2C[C@@H](O)CN2C(=O)C2C(O)C3CCN2CC3)CC1 (stereo partly shown) shows IC50 equal to 0.025

###

The compounds listed here are annotated with their IC50.
# tested system: NK1-receptor (substance P-receptor) (Homo sapiens)
# Construct: cloned NK1 -receptors on human lymphoblastoma cells (IM-9); endogenous in cells; host or cells: IM-9 human lymphoblastoma cells
# assay details: NK1-receptor (substance P-receptor) affinity: displacement of 125I-labelled substance P on IM-9 cells
# Format: binding
# condition label: cloned NK1-receptors on human lymphoblastoma cells (IM-9); displacement of 125I-labelled substance P; read-out: NK1 IC50
Respond with the bare value in nM.

CC12CCC(C(C(=O)N3C[C@H](O)C[C@H]3C(=O)N[C@@H](Cc3ccc4ccccc4c3)C(=O)N3CCN(C4CCCCC4)CC3)C1=O)C2(C)C (stereo partly shown) = 17

The compound listed as CCOC(=O)c1ccccc1N1CCN(C(=O)[C@H](Cc2ccc3ccccc3c2)NC(=O)[C@@H]2C[C@@H](O)CN2C(=O)C2C(=O)C3(C)CCC2C3(C)C)CC1 (stereo partly shown) shows IC50 equal to 0.45

The compound listed as COc1ccccc1N1CCN(C(=O)[C@H](Cc2ccc3ccccc3c2)NC(=O)[C@@H]2C[C@@H](O)CN2C(=O)C2CCCCC2O)CC1 (stereo partly shown) shows IC50 equal to 20

The compound listed as CC12CCC(C(C(=O)N3C[C@H](O)C[C@H]3C(=O)N[C@@H](Cc3ccc4ccccc4c3)C(=O)N3CCN(c4ccccn4)CC3)C1=O)C2(C)C (stereo partly shown) shows IC50 equal to 45

The compound listed as CC12CCC(C(C(=O)N3C[C@H](O)C[C@H]3C(=O)N[C@@H](Cc3ccc4ccccc4c3)C(=O)N3CCN(c4ccccc4Cl)CC3)C1=O)C2(C)C (stereo partly shown) shows IC50 equal to 3

The compound listed as CN(Cc1ccccc1Br)C(=O)[C@H](Cc1c[nH]c2ccccc12)NC(=O)[C@@H]1C[C@@H](O)CN1C(=O)C1C(=O)C2(C)CCC1C2(C)C (stereo partly shown) shows IC50 equal to 1.2

###

# tested system: NK1-receptor (substance P-receptor) (Homo sapiens, UniProt P25103)
# Construct: cloned NK1 -receptors on human lymphoblastoma cells (IM-9); endogenous in cells; host or cells: IM-9 human lymphoblastoma cells
# assay details: NK1-receptor (substance P-receptor) affinity: displacement of 125I-labelled substance P on IM-9 cells
# Assay type: binding
# condition label: cloned NK1-receptors on human lymphoblastoma cells (IM-9); displacement of 125I-labelled substance P; read-out: NK1 IC50
The compounds listed here are annotated with their pIC50.
To interpret pIC50, take it as minus log10 of a concentration measured in moles per litre.

Example cases with answers are listed next.
CC12CCC(C(C(=O)N3C[C@H](O)C[C@H]3C(=O)N[C@@H](Cc3ccc4ccccc4c3)C(=O)N3CCN(c4ccccc4O)CC3)C1=O)C2(C)C (stereo partly drawn) [Compound 12] = 8.25
CCOc1ccccc1N1CCN(C(=O)[C@H](Cc2ccc3ccccc3c2)NC(=O)[C@@H]2C[C@@H](O)CN2C(=O)C2C(=O)C3(C)CCC2C3(C)C)CC1 (stereo partly drawn) [Compound 15] = 8.49

The compound listed as COc1ccccc1N1CCN(C(=O)[C@H](Cc2ccc3ccccc3c2)NC(=O)[C@@H]2C[C@@H](O)CN2C(=O)C2CC3C=CC2(OC)CC3)CC1 (stereo partly drawn) [Compound 19] shows pIC50 equal to 7.59
